For each entry below, report its aptazyme ON/OFF ratio value.
B1: Pistol ribozyme (parent)
chain: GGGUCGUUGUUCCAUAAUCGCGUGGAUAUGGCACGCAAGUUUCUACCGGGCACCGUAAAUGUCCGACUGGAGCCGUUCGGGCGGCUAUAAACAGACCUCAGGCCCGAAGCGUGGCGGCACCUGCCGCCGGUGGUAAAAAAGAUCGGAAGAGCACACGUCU

Variants of: B1
Experiment: aptazyme ON/OFF ratio, guanine; higher = stronger switching; co-transcriptional cleavage with and without guanine
Numbers only.

Worked examples follow.
U7C U8C G9A U10C U11G: 1.24
U7C U8C G9U U10G U11A C12U C13U: 1.21

The following variants each have a reported value; give each one's aptazyme ON/OFF ratio.
1. U7C U8A G9C U10A C12U C13G
2. U7G U8A G9C U10G U11A C12U
3. U7A G9C U11G C12A
4. U8A G9C U10C U11C

Result:
1. 1.11
2. 1.02
3. 1.19
4. 1.01

For each listed entry, give its aptazyme ON/OFF ratio.
1. U7A U8C G9U U10C U11C C12A
2. U7G G9U U11G
3. U7G U8C G9A U10G U11C C12U C13U
4. U7G U8C U10G U11C C12U C13U
5. U8A G9C U10A U11A C13U
6. U7G G9U C12A C13U
7. U7A G9U U10A U11G C12A C13A

Result:
1. 1.08
2. 2.13
3. 1.12
4. 1.47
5. 1.22
6. 1.14
7. 1.08

Hello, I would appreciate it if you could give aptazyme ON/OFF ratio for each entry below.
1. U7G U8G U10A C12U
2. U7G U8G G9A U10G U11C C12U C13A

Result:
1. 1.45
2. 1.07

I'm hoping you can list aptazyme ON/OFF ratio for every variant here, please.
1. U7G G9U U10C
2. U7A U8A G9A U10G U11A C12U C13A
3. U7A U8G U10G C12A C13A
4. U7G U8A G9C U10A U11C C12A C13U

Result:
[3.94, 1.13, 1.04, 1.03]
